Measured TGI, listed per entry for reference.
System: OVCAR-4 ovarian
Experiment: NCI tumour cell line growth inhibition, 48 h
Where a SMILES comes first, the peptide text is derived from it. [ ]: non-standard residue; d: D form. The star is where a group is joined. Cbz = O=C(OCc1ccccc1)*; Boc = CC(C)(C)OC(=O)*; Aib = CC(C)(N)C(=O)O; OBn = c1ccc(CO*)cc1; OtBu = CC(C)(C)O*; βAla = NCCC(=O)O
readout: TGI

>  <compound>
CC(C)(C)OC(=O)CC(NC(=O)OC(C)(C)C)C(=O)NC(CCCCNC(=O)OCc1ccccc1)C(=O)NC(C)(C)C(=O)NCCC(=O)OCc1ccccc1 (stereo not drawn) (Boc-D(OtBu)K(Cbz)[Aib][βAla]-OBn; configuration not given here)

>  <readout>
TGI

>  <value.measured>
> 100 µM

$$$$
>  <compound>
CC(C)n1c(=O)n(-c2ccccc2)n(C(C)(C)C)c1=O

>  <readout>
TGI

>  <value.measured>
> 100 µM

$$$$
>  <compound>
COC(=O)CCC/C=C\C[C@H]1C=CC(=O)/C1=C/C[C@@H](O)CCc1cccc(C(F)(F)F)c1

>  <readout>
TGI

>  <value.measured>
14.1 µM

$$$$
>  <compound>
c1cnc2c(c1)-n1cccc1C1(CCSCC1)NN2

>  <readout>
TGI

>  <value.measured>
> 100 µM

$$$$
>  <compound>
COc1cc2c(cc1C)NC(=O)/C2=C\c1cc(OC)c(OC)c(OC)c1

>  <readout>
TGI

>  <value.measured>
> 100 µM

$$$$
>  <compound>
CC(C)(C)OC(=O)N1C(OP(=O)(Oc2ccccc2)Oc2ccccc2)=COc2cccnc21

>  <readout>
TGI

>  <value.measured>
> 100 µM

$$$$
>  <compound>
COc1ccc(OC)c2cc(Cc3ccc(N(C)C)cc3)c(=O)c(Cc3ccc(N(C)C)cc3)cc12

>  <readout>
TGI

>  <value.measured>
> 100 µM

$$$$
>  <compound>
CCCCCCC/C=C/[C@H]1O[C@]23C(=O)C[C@@]4(C[C@@H](OC5OC(CO)C(O)C(O)C5O)C[C@@H]4[C@H]2C=C1C)OC3=O (stereo partly drawn)

>  <readout>
TGI

>  <value.measured>
8.07 µM

$$$$
